Test: soluble on expression in E. coli; label from the status in PepcDB or PDB records
measuredParameter: soluble on expression in E. coli

[[record]]
seqtext = "MGSDKIHHHHHHMPTVLALETSCDESAAAVLRLNNGCLQVIASRIASQVEKHAQWGGVVPEVASRLHVEALPHLVEEVLQEAGQSMARFDAVAATVTPGLAGALMVGSVTGRSLAALHALPFFGIHHLEGHLASVRLAEHPPRPPYLVLLVSGGHTELIRVGAESEMVRLGRSHDDAAGEAFDKVGRLLGLAYPGGPAIQALAATGDSGRFSLPKGRVSKPGGGFHPYDFSFSGLKTAMLRLVQALSEADEDLPRADLAASFEQVVADVLVERSLLCANDQGLKTVVMVGGVAANRRLRELMSKRGQEQGIEVHTAPLRYCTDNAAMIGAAALQRLVSGVNGSSLELGVAARWPLDKTEVLYHSPPPF"
result = "not soluble"

[[record]]
seqtext = "MAYRNIKIVKGNGGFGGPLIIAPTDEKHKFIYITGGGEKPEIVDKIVELTGMEAVNGFKTSIPDEEIALAIVDCGGTLRCGIYPKKGIPTINIVATGKSGPLAQYITEDIYVSAVGMEQITSIEESAGSIETKEAKAETAQSQTGTGTYDTSKKITEQRAQQSVIARIGMGAGKVVAVFNQAARDAIQ"
result = "not soluble"

[[record]]
seqtext = "MCELDILHDSLYQFCPELHLKRLNSLTLACHALLDCKTLTLTELGRNLPTKARTKHNIKRIDRLLGNRHLHKERLAVYRWHASFICSGNTMPIVLVDWSDIREQKRLMVLRASVALHGRSVTLYEKAFPLSEQFQRKLMTNFLEHHHHHH"
result = "not soluble"


====

Test: soluble on expression in E. coli; label from the status in PepcDB or PDB records
measuredParameter: soluble on expression in E. coli

[[record]]
seqtext = "MSKIDFHTHYLPTSYVEALKRHVPGDPDGWPTPEWTPQLTLNFMRDNDISYSILSLSSPHVNFGDKAETIRLVEAANDDGKSLAQQYPDQLGYLASLPIPYELDAVKTVQQALDQDGALGVTVPTNSRGLYFGSPVLERVYQELDARQAIVALHPNEPAILPKNVDIDLPVPLLGFFMDTTMTFINMLKYHFFEKYPNIKVIIPHAGAFLGIVDDEIAQYAQKVYQVDVYDVMHHVYFDVAGAVLPRQLPTLMSLAQPEHLLYGSDIPYTPLDGSRQLGHALATTDLLTNEQKQAIFYDNAHRLLTELEHHHHHH"
result = "not soluble"

[[record]]
seqtext = "MAHHHHHHMRSLPNIIVTGVPGVGKTTLCEELVEILNKQLKENQQAESASQMKHLNLSKVIKEERLYEEFDDQLDASIYSSDMVNEKLEKLKLENGGYIIDFHDVDFLDEKELIDHIFLLTASTNKLYERLEKRNYSEEKIKNNIECEIFQVIKEDILTSYNDPSIFDELENNDMEQYESNLQLIKGWVLSWVKNGVAMPR"
result = "soluble"

[[record]]
seqtext = "MGHHHHHHSHALKRLEVEVELFNQPSEELENFDFIVSVGGDGTILRILQKLKRCPPIFGINTGRVGLLTHASPENFEVELKKAVEKFEVERFPRVSCSAMPDVLALNEIAVLSRKPAKMIDVALRVDGVEVDRIRCDGFIVATQIGSTGYAFSAGGPVVEPYLECFILIPIAPFRFGWKPYVVSMERKIEVIAEKAIVVADGQKSVDFDGEITIEKSEFPAVFFKNEKRFRNL"
result = "not soluble"

[[record]]
seqtext = "MESVAAESAPAPENEHSQETPESNSSVYTTFMKSHRCYDLIPTSSKLVVFDTSLQVKKAFFALVTNGVRAAPLWDSKKQSFVGMLTITDFINILHRYYKSALVQIYELEEHKIETWREVYLQDSFKPLVCISPNASLFDAVSSLIRNKIHRLPVIDPESGNTLYILTHKRILKFLKLFITEFPKPEFMSKSLEELQIGTYANIAMVRTTTPVYVALGIFVQHRVSALPVVDEKGRVVDIYSKFDVINLAAEKTYNNLDVSVTKALQHRSHYFEGVLKCYLHETLEAIINRLVEAEVHRLVVVDEHDVVKGIVSLSDILQALVLTGGEKKP"
result = "soluble"

[[record]]
seqtext = "HWVTPDGQPGPSGEGGFTAESGRYHLFVSLACPWAHRTLIFRHLKDLQAHIGITIVDPRMLEHGWAFSEISRDNPVQDIRYLHQLYTRAKPDYTGRVTVPVLWDKQRDTIVSNESADIIRMFNSAFDSLTGNDLDFYPEALRNEIGTINEVVYRDFNN"
result = "not soluble"

[[record]]
seqtext = "GMELKDIMHILEDMKVGVFATLDEYGNPHARHAHITAANEEGIFFMTSPETHFYDQLMGDQRVAMTAISEEGYLIQVVRVEGTARPVENDYLKTVFADNPYYQHIYKDESSDTMQVFQIYAGHGFYHSLTQGHKYIFSIGQGEHSEVRAL"
result = "soluble"

